TGI by entry:
- Tested on: 786-0 renal
- Assay Info: NCI tumour cell line growth inhibition, 48 h
Return type: number; implicit unit µM.

Given the entry COC(=O)C1=C(C)N(NC(=O)c2ccccc2)C(C)(O)C12CCOC2=O (stereo not drawn) , report its measured TGI.
2.68

Given the entry COc1cc(C(=O)c2cc(C)c3[nH]c4ccc(Cl)cc4c3c2C)cc(OC)c1OC , report its measured TGI.
6.19

---

- Test system: MCF7 breast
- Assay Info: NCI tumour cell line growth inhibition, 48 h
TGI by entry:

Consider the worked cases shown below.
{"Compound": "NS(=O)(=O)c1nn2c(Br)c(-c3ccccc3)nc2s1", "TGI": "16 µM"}
{"Compound": "NC(N)=NCCN=C(N)N", "TGI": "> 100 µM"}

Given the entry CC1(CCCO)CCCCCC(C)(CCCO)C1=O (stereo not drawn) , report its measured TGI.
> 100 µM

These measurements were taken from PubChem BioAssay (NCI).
